Experiment: CCTE_Shafer_MEA_acute_per_network_burst_spike_number_std: CCTE's Neural Acute Assay for Standard Deviation of Number of Spikes in a Network Burst, Shafer Lab (AID 2284020);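 further: fitted for decrease in spike-number SD versus DMSO so actives lower it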
Active and inactive are the calls of the source. How the source made its calls: active means hit-call score of the fitted dose curve at least 0.9, where 1 is the maximum; inactive means score below 0.9.
Outcome codes: yes (1) = active, no (0) = inactive

- compound: "CC(C)C(=O)Nc1ccc([N+](=O)[O-])c(C(F)(F)F)c1"
  label: "yes (1)"
- compound: "COCc1nnc(-c2ccc[n+]([O-])c2)n1-c1c(Cl)c(Cl)cc2[nH]c(=O)c(=O)[nH]c12"
  label: "yes (1)"
- compound: "CCCCCCCC1CCC(=O)O1 (stereo not drawn)"
  label: "no (0)"
- compound: "Cn1c(=O)c2[nH]cnc2n(C)c1=O"
  label: "no (0)"
- compound: "COc1cc2c(c(OC)c1OC)-c1ccc(OC)c(=O)cc1[C@@H](NC(C)=O)CC2"
  label: "no (0)"
- compound: "CCCCC(CC)C(=O)OCCOCCOCCOC(=O)C(CC)CCCC (stereo not drawn)"
  label: "no (0)"
- compound: "CCCCCCCC/C=C\\CCCCCCCC(=O)OC[C@@H](O)[C@H]1OC[C@H](O)[C@H]1O"
  label: "no (0)"
- compound: "CC[C@H](C)C(=O)O[C@H]1C[C@H](O)C=C2C=C[C@H](C)[C@H](CC[C@@H](O)C[C@@H](O)CC(=O)O)[C@H]21"
  label: "no (0)"
